Reported pIC50 is given for each of the following compounds.
- ASSAY SYSTEM: human mGlu7 (Homo sapiens, UniProt Q14831)
- Sequence (Q14831 35-922 isoform Q14831-2 limits assumed): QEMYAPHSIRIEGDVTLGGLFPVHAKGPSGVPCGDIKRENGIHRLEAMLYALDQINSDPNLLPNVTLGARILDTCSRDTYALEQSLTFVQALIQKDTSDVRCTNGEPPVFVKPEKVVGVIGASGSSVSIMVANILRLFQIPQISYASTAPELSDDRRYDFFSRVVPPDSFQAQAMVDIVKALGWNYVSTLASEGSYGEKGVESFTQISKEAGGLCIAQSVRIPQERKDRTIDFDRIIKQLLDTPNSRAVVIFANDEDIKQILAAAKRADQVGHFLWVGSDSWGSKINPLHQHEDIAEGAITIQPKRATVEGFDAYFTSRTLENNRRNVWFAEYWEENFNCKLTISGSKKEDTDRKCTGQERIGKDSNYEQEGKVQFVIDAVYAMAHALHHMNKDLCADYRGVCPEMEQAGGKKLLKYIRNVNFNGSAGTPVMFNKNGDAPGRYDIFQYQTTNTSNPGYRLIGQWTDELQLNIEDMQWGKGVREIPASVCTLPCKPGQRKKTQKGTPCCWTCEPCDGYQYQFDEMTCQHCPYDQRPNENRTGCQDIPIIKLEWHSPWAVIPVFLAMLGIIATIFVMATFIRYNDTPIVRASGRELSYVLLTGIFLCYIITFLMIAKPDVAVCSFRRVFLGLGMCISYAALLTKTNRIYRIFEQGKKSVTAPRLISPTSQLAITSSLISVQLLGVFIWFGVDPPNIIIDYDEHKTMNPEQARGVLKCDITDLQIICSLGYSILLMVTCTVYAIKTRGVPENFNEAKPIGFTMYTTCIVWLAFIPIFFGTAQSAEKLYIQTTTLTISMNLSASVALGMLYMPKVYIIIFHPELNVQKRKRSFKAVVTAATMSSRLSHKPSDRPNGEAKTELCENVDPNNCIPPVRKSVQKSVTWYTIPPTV
- RUN DESCRIPTION: mGlu7 assay on HEK-expressing human mGlu7: fluorescent cell-based Ca2+ mobilization (FLIPR384), inhibition of EC80 L-AP4 response
- DETAILS: HEK-293 cells expressing hmGlu7, EC80 L-AP4 stimulation; mean of at least three independent experiments in duplicate; read-out: Ca^2+ Flux (mean IC50)
pIC50: −log10 of the molar value. Where a name gives a salt, the structure may show the parent alone.

COc1cccc(-c2ccc3c(=O)n(-c4ncc(F)cn4)ncc3c2)c1C ... > 7.00
O=c1c2ccc(-c3cc(N4CCC4)ccc3F)cc2cnn1-c1ccccn1 ... > 7.00
CNCCNc1cnc(-n2ncc3cc(-c4cccc(OC)c4C)ccc3c2=O)nc1 ... 6.00 to 7.00

Which pIC50 value is on record for `COc1cccc(-c2ccc3c(=O)n(-c4ncc(N5CC6(COC6)C5)cn4)ncc3c2)c1C` ? 6.00 to 7.00

Same question, `COc1cccc(-c2ccc3c(=O)n(-c4ncc(NC(C)(C)CO)cn4)ncc3c2)c1C` this time > 7.00

Same question, `COc1cccc(-c2ccc3c(=O)n(-c4ncccn4)ncc3c2)c1C` this time > 7.00

Same question, `COCCNc1cnc(-n2ncc3cc(-c4cccc(OC)c4C)ccc3c2=O)nc1` this time > 7.00

Same question, `O=c1c2ccc(-c3cccc(N4CCC4)c3)cc2cnn1-c1ccc(F)cn1` this time 6.00 to 7.00

Same question, `COc1cccc(-c2ccc3c(=O)n(-c4ncc(NCCN(C)C)cn4)ncc3c2)c1C` this time > 7.00

Same question, `O=c1c2ccc(-c3nccc(N4CCC4)n3)cc2cnn1-c1ccccn1` this time 5.00 to 6.00

Same question, `COc1cccc(-c2ccc3c(=O)n(-c4ncccn4)ncc3c2)c1Cl` this time > 7.00

Same question, Cc1ccc(-c2ccc3c(=O)n(-c4ccc(C(C)O)cc4)ncc3c2)c(C)c1 (stereo not shown) this time 6.00 to 7.00

Same question, COc1cccc(-c2ccc3c(=O)n(-c4ccc(NC(=O)[C@@H](N)C(C)C)cn4)ncc3c2)c1C [1-98, hydrochloride] this time 6.00 to 7.00

Same question, `COc1cccc(-c2ccc3c(=O)n(-c4ncc(Cl)cn4)ncc3c2)c1C` this time > 7.00

Same question, COc1cccc(-c2ccc3c(=O)n(-c4ncc(N5CCC(O)C5)cn4)ncc3c2)c1C (stereo not shown) this time > 7.00

Same question, `O=c1c2ccc(-c3cccc(C4CC4)c3)cc2cnn1-c1ccccn1` this time 6.00 to 7.00

Same question, `COc1cccc(-c2ccc3c(=O)n(-c4ncc(N5CCOCC5)cn4)ncc3c2)c1C` this time > 7.00

Same question, `COc1cccc(-c2ccc3c(=O)n(-c4ccc(NC(=O)[C@@H](N)CO)cn4)ncc3c2)c1C` this time > 7.00

Same question, `CCn1ncc2cc(-c3cccc(N(C)C)c3)ccc2c1=O` this time 6.00 to 7.00
